- assay system: porcine serotonin transporter (pSERT) (Sus scrofa)
- Sequence (F1RN70 38-667): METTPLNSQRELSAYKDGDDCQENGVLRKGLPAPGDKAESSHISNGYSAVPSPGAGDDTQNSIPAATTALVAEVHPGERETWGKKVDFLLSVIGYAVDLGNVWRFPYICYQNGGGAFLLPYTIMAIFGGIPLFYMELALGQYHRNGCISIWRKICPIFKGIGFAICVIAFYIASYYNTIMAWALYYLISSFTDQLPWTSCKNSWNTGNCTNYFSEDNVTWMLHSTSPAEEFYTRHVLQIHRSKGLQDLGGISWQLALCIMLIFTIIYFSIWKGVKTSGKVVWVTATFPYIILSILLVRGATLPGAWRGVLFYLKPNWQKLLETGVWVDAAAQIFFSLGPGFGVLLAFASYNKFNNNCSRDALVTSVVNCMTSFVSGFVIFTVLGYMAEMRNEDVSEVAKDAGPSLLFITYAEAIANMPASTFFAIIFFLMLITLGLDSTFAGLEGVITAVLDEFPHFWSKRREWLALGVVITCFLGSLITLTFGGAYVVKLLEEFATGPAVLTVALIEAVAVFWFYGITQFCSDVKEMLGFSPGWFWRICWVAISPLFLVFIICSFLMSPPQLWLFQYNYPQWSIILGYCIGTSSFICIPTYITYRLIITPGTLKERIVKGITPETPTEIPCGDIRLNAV
recorded endpoint: pKi
Numbers only, as −log10 of the molar value.

Note to self: pKi recorded for CN[C@@H](C)Cc1ccccc1 [(+)-methamphetamine] was 3.70
